Answer each item with its documented TD50.
- assay_name: The cytotoxicity after intraperitoneal administration
- Type: organism-based
- condition_description: mouse, in vivo, ip

The following compounds have reported results that may help.
CN1C(=O)CCC(Cc2ccc(Cl)cc2Cl)C1=O (centres undefined): 650 mg/kg
CN1C(=O)CCC(Cc2ccc(Cl)cc2)C1=O (centres undefined): 348 mg/kg
CN1C(=O)CCC(Cc2ccc(Br)cc2)C1=O (centres undefined): 534 mg/kg
O=C1CCC(Cc2ccc(C(F)(F)F)cc2)C(=O)N1 (centres undefined): 349 mg/kg
O=C1CCC(Cc2ccc(I)cc2)C(=O)N1 (centres undefined): > 1050 mg/kg
O=C1CCC(Cc2ccc(Cl)cc2)C(=O)N1 (centres undefined): 1220 mg/kg
CN1C(=O)CCC(Cc2ccccc2Br)C1=O (centres undefined): 617 mg/kg
O=C1CCC(Cc2ccc(Br)cc2)C(=O)N1 (centres undefined): 513 mg/kg

Quick one: give measured TD50 for O=C1CCC(Cc2ccc(Cl)cc2Cl)C(=O)N1 (centres undefined)
687 mg/kg

* * *

- assay_name: The cytotoxicity after intraperitoneal administration in rat.
- Assay type: organism-based
- condition_description: in vivo, ip
measured_quantity: TD50

Quick one: give measured TD50 for O=C1NC(=O)C(c2ccccc2)(c2ccccc2)N1
> 3000 mg/kg

* * *

Answer each item with its documented LD50 at 24 h.
- assay_name: Median lethal dose was measured after 24 hr.
- Format: organism-based
- condition_description: mouse, in vivo
One number for each entry, in mg/kg.

State recorded LD50 at 24 h for all listed compounds.
1. O=C1NC(=O)C(c2ccccc2)(c2ccccc2)N1
2. CCC1(c2ccccc2)C(=O)NC(=O)NC1=O
3. CCC1(C)CC(=O)NC1=O (stereo not drawn) [ETHOSUXIMIDE]

1. 230
2. 265
3. 1750

* * *

- Organism: Mus musculus
- assay_name: Time of peak effect was determined for activity in MES
- Assay type: functional
- Design: unit not given here
Answer each item with its documented TPE.
One number for each entry.

The following compounds have reported results that may help.
CN1C(=O)CCC(Cc2ccc(Cl)cc2Cl)C1=O (centres undefined): 0.5
O=C1NC(=O)C(c2ccccc2)(c2ccccc2)N1 [PHENYTOIN]: 2
CN1C(=O)CCC(Cc2ccc(Br)cc2)C1=O (centres undefined): 1
O=C1CCC(Cc2ccc(Cl)cc2Cl)C(=O)N1 (centres undefined): 1
O=C1CCC(Cc2ccc(C(F)(F)F)cc2)C(=O)N1 (centres undefined): 2
O=C1CCC(Cc2ccc(I)cc2)C(=O)N1 (centres undefined): 1
CCC1(c2ccccc2)C(=O)NC(=O)NC1=O [PHENOBARBITAL]: 1
CN1C(=O)CCC(Cc2ccc(Cl)cc2)C1=O (centres undefined): 0.5

Attention now turns to another entry.
Quick one: give measured TPE for CN1C(=O)CCC(Cc2ccccc2Br)C1=O (centres undefined)
1

* * *

- System: Mus musculus
- assay_name: The Neurologic toxicity by measuring rotarod test after 4 hr; Not active up to 300 mg/kg
- Assay type: organism-based
- Set-up: dose 300 mg/kg
- condition_description: in vivo
measured_quantity: Toxicity

O=C1CCC(Cc2ccc(F)cc2)C(=O)N1 (stereo not drawn): Not Active
CN1C(=O)CCC(Cc2ccc(C(F)(F)F)cc2)C1=O (stereo not drawn): Not Active
CN1C(=O)CCC(Cc2ccc(I)cc2)C1=O (stereo not drawn): Not Active

* * *

- assay_name: The cytotoxicity (given orally) […] in rat
- Assay type: organism-based
- condition_description: in vivo
measured_quantity: TD50 (mg/kg)
Answers are plain numbers, in mg/kg.

Quick one: give measured TD50 for O=C1CCC(Cc2ccc(Cl)cc2)C(=O)N1 (stereo unspecified)
68.2

* * *

- Species: Mus musculus
- assay_name: Time of peak effect was determined for toxicity
- Format: organism-based
- Design: unit not given here
- condition_description: in vivo
measured_quantity: TPE
One number for each entry.

CN1C(=O)CCC(Cc2ccc(Cl)cc2Cl)C1=O (configuration not stated): 2

State recorded TPE for all listed compounds.
1. CN1C(=O)CCC(Cc2ccc(Cl)cc2)C1=O (configuration not stated)
2. O=C1CCC(Cc2ccc(Cl)cc2Cl)C(=O)N1 (configuration not stated)
3. O=C1CCC(Cc2ccc(C(F)(F)F)cc2)C(=O)N1 (configuration not stated)
4. CN1C(=O)CCC(Cc2ccc(Br)cc2)C1=O (configuration not stated)
5. CN1C(=O)CCC(Cc2ccccc2Br)C1=O (configuration not stated)
6. O=C1NC(=O)C(c2ccccc2)(c2ccccc2)N1 [PHENYTOIN]

1. 1
2. 0.5
3. 1
4. 1.5
5. 0.5
6. 2

* * *

- Species: Mus musculus
- assay_name: Time of peak effect toxicity against maximal electroshock induced seizures
- Assay type: organism-based
- condition_description: in vivo
measured_quantity: Time of peak effect

The following compounds have reported results that may help.
CCC1(c2ccccc2)C(=O)NC(=O)NC1=O [PHENOBARBITAL]: 0.5 h
CCC1(C)CC(=O)NC1=O (centres undefined) [ETHOSUXIMIDE]: 0.5
O=C1NC(=O)C(c2ccccc2)(c2ccccc2)N1 [PHENYTOIN]: 2 h

Quick one: give measured Time of peak effect for CCCC(CCC)C(=O)O [VALPROIC ACID]
0.25

* * *

- Tested on: Mus musculus
- assay_name: The Neurologic toxicity by measuring rotarod test after 0.5 hr at 300 mg/kg; Active
- Format: organism-based
- Design: dose 300 mg/kg
- condition_description: in vivo
measured_quantity: Toxicity

O=C1CCC(Cc2ccc(C(F)(F)F)cc2)C(=O)N1 (stereo not drawn): Active
CC(C)Oc1ccc(CC2CCC(=O)NC2=O)cc1 (stereo not drawn): Active
CN1C(=O)CCC(Cc2ccc(Cl)cc2)C1=O (stereo not drawn): Active
O=C1CCC(Cc2ccc(F)cc2)C(=O)N1 (stereo not drawn): Active
O=C1CCC(Cc2ccc(Br)cc2)C(=O)N1 (stereo not drawn): Active
CCCOc1ccc(CC2CCC(=O)NC2=O)cc1 (stereo not drawn): Active
O=C1CCC(Cc2ccc(Cl)cc2Cl)C(=O)N1 (stereo not drawn): Active

Attention now turns to another entry.
Quick one: give measured Toxicity for O=C1CCC(Cc2ccccc2Br)C(=O)N1 (stereo not drawn)
Active
